TARGET ENTITY: human prostanoid FP receptor (Homo sapiens)
Construct: expressed in transfected cells
Sequence (P43088 whole entry): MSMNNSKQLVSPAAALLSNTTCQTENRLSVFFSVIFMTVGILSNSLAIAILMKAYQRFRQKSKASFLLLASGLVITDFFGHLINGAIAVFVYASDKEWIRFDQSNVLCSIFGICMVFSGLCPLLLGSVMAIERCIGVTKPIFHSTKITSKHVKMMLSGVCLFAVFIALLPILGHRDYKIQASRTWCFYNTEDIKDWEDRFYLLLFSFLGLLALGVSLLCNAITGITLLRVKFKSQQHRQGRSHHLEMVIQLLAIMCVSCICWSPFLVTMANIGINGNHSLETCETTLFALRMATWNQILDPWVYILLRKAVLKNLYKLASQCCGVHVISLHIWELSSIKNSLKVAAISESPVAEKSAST
MEASUREMENT DESCRIPTION: FLIPR Ca2+ signaling PG antagonist assay, FP stable cell line
Assay type: cell-based
CONDITION NOTES: antagonist Kb vs standard agonist 17-phenyl-PGF2α; HEK-293 EBNA cells
Measured Kb, listed per entry.
Please state the figure in nM; there is no need to write the unit.

# COMPOUND, TARGET ENTITY, READOUT LABEL, NUMERIC READOUT
measured = [
    ("Cc1cc(OCC(=O)O)nn1Cc1cc(Cl)ccc1OCC(C)C [Example 4]", "human prostanoid FP receptor (Homo sapiens)", "Kb", 1700),
    ("Cc1cc(OCC(=O)O)nn1Cc1cc(Cl)ccc1OCc1ccc(Cl)cc1 [Example 3]", "human prostanoid FP receptor (Homo sapiens)", "Kb", 220),
    ("CCC(CC)COc1ccc(Br)cc1Cn1nc(OCC(=O)O)cc1C [Example 1]", "human prostanoid FP receptor (Homo sapiens)", "Kb", 250),
]

Pending compound:
// assay human prostanoid FP receptor (Homo sapiens), entry CCC(CC)COc1ccc(Cl)cc1Cn1nc(OCC(=O)O)cc1C [Example 2] , Kb value = 980

----------
TARGET ENTITY: human prostanoid EP1 receptor (Homo sapiens)
Construct: expressed in transfected cells
Sequence (P34995 whole entry): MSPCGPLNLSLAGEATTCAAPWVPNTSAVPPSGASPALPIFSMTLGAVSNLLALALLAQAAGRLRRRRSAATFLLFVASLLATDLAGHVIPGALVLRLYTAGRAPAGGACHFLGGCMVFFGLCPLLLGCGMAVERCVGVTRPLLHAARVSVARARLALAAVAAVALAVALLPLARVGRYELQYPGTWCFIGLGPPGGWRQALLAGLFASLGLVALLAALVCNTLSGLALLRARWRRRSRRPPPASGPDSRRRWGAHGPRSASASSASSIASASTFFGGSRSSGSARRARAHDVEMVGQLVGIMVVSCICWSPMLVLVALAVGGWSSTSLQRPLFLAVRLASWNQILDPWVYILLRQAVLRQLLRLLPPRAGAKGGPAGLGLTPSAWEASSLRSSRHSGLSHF
MEASUREMENT DESCRIPTION: FLIPR Ca2+ signaling PG antagonist assay, EP1 stable cell line
Type: cell-based
CONDITION NOTES: antagonist Kb vs standard agonist PGE2; HEK-293 EBNA cells
READOUT LABEL: Kb (nM)
Please state the figure in nM; there is no need to write the unit.

Observe how each entry below is paired with its result.
# COMPOUND, TARGET ENTITY, UNITS SYMBOL, NUMERIC READOUT
measured = [
    ("CCC(CC)COc1ccc(Cl)cc1Cn1nc(OCC(=O)O)cc1C [Example 2]", "human prostanoid EP1 receptor (Homo sapiens)", "nM", 75),
    ("Cc1cc(OCC(=O)O)nn1Cc1cc(Cl)ccc1OCC(C)C [Example 4]", "human prostanoid EP1 receptor (Homo sapiens)", "nM", 110),
    ("Cc1cc(OCC(=O)O)nn1Cc1cc(Cl)ccc1OCc1ccc(Cl)cc1 [Example 3]", "human prostanoid EP1 receptor (Homo sapiens)", "nM", 9),
]

Pending compound:
Measured Kb of CCC(CC)COc1ccc(Br)cc1Cn1nc(OCC(=O)O)cc1C [Example 1] : 40
